Data credit: ChEMBL document CHEMBL1139885

molecular target: UniProtKB Q72547; experiment: Inhibition of reverse transcriptase binding to DNA assessed as formation of RT-DNA complex by gel mobility shift assay
Active and inactive are the calls of the source. The rule behind the calls is not given here.
value type: Activity

[[record]]
smiles_representation = "NC(=O)c1[nH]cnc1-c1ccc(Cl)c(Br)c1"
assay_value = "inactive"

[[record]]
smiles_representation = "Cc1ccnc2c1NC(=O)c1cccnc1N2C1CC1"
assay_value = "inactive"

[[record]]
smiles_representation = "N#CCC(=O)Cc1cccc(I)c1"
assay_value = "inactive"


###

Reported pIC50 values for the following compounds.
biological target: Human immunodeficiency virus type 1 reverse transcriptase (Human immunodeficiency virus 1); test: Inhibition of DNA polymerase activity of HIV1 reverse transcriptase
pIC50 is a log-scale quantity: -log10 of the concentration expressed in molar.

Reference set (4 entries):
[[record]]
smiles_representation = "NC(=O)c1[nH]cnc1-c1ccccc1"
value_type = "pIC50"
assay_value = 3.52

[[record]]
smiles_representation = "NC(=O)c1sc(N)nc1-c1cccc(Cl)c1"
value_type = "pIC50"
assay_value = 4.26

[[record]]
smiles_representation = "NC(=O)c1sc(N)nc1-c1cccc(I)c1"
value_type = "pIC50"
assay_value = 3.90

[[record]]
smiles_representation = "NC(=O)c1scnc1-c1cccc(C(=O)c2ccccc2)c1"
value_type = "pIC50"
assay_value = 4.79


## Input Quick check: pIC50 on Human immunodeficiency virus type 1 reverse transcriptase (Human immunodeficiency virus 1), item `NC(=O)c1scnc1-c1ccccc1` ?
## Output 3.55

## Input Next record, please: `N#CCC(=O)c1cccc(C(=O)c2ccccc2)c1`
## Output 5.01

## Input Next record, please: `N#CCC(=O)c1cccc(Cl)c1`
## Output 5.39

## Input Next record, please: `NC(=O)c1sc(N)nc1-c1ccccc1`
## Output 4.09

## Input Next record, please: `NC(=O)c1sc(N)nc1-c1ccc(Cl)c(Br)c1`
## Output 3.93

## Input Next record, please: `N#CCC(=O)Cc1cccc(I)c1`
## Output 5.46

## Input Next record, please: `NC(=O)c1[nH]cnc1-c1cccc(Cl)c1`
## Output 4.10
